Target: recombinant human 11 β-HSD1 (Homo sapiens, UniProt P28845)
Sequence (P28845 whole entry): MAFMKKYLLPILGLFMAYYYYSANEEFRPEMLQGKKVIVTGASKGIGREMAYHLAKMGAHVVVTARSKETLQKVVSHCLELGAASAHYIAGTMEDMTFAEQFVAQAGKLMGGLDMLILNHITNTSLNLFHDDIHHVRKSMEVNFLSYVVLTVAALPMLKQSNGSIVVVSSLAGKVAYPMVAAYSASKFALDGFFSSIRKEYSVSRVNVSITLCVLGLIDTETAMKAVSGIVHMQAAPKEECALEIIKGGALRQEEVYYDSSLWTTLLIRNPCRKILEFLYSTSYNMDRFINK
Assay: 11 β-HSD1 SPA Assay (Scintillation Proximity Assay)
pIC50: −log10 of the molar value.
compounds and their reported pIC50
property: pIC50

# compound, property, reported_value
rows = [
    ("CC(C)(Oc1ccc(Cl)cc1S(C)(=O)=O)C(=O)N[C@H]1C[C@H]2CC[C@@H](C1)N2c1ccc(C(N)=O)cn1", "pIC50", "> 6.70"),
    ("CC(C)(Oc1ncc(Cl)cc1F)C(=O)N[C@H]1C[C@H]2CC[C@@H](C1)N2c1ccc(S(C)(=O)=O)cc1", "pIC50", "> 5.70"),
    ("C[C@H](NC(=O)c1ccc(N2C3CCC2CC(NC(=O)C(C)(C)Oc2ccc(Cl)cc2C(F)(F)F)C3)nc1)C(F)(F)F (some centres unmarked)", "pIC50", "> 6.70"),
    ("CC(C)(Oc1ccc(Cl)cc1Cl)C(=O)N[C@H]1C[C@H]2CC[C@@H](C1)N2c1ccc(C(=O)NCC(F)(F)F)cn1", "pIC50", "> 6.70"),
    ("CC(C)(Oc1ccc(F)cc1C(F)(F)F)C(=O)N[C@H]1C[C@H]2CC[C@@H](C1)N2c1ccc(S(C)(=O)=O)cn1", "pIC50", "> 6.70"),
    ("CC(C)(Oc1ccc(F)cc1Cl)C(=O)N[C@H]1C[C@H]2CC[C@@H](C1)N2c1ccc(S(C)(=O)=O)cn1", "pIC50", "> 6.70"),
    ("CC(C)(Oc1ccccc1C(F)(F)F)C(=O)N[C@H]1C[C@H]2CC[C@@H](C1)N2c1ccc(C(=O)NC2CC2)cn1", "pIC50", "> 6.70"),
    ("CC(C)(Oc1cc(F)c(F)cc1Cl)C(=O)N[C@H]1C[C@H]2CC[C@@H](C1)N2c1ccc(S(C)(=O)=O)cc1", "pIC50", "> 6.70"),
    ("CC(C)(Oc1ccc(Cl)cc1)C(=O)N[C@H]1C[C@H]2CC[C@@H](C1)N2c1ccc(C(=O)NC2CC2)cn1", "pIC50", "> 6.70"),
    ("CC(C)(Oc1ncc(Cl)cc1C(F)(F)F)C(=O)N[C@H]1C[C@H]2CC[C@@H](C1)N2c1ccc(S(C)(=O)=O)cn1", "pIC50", "> 6.70"),
    ("CC(C)(Oc1ccc(Cl)c(Cl)c1)C(=O)N[C@H]1C[C@H]2CC[C@@H](C1)N2c1ccc(C(=O)NCC(F)(F)F)cn1", "pIC50", "> 6.70"),
    ("CS(=O)(=O)c1cccc(C2(C(=O)N[C@H]3C[C@H]4CC[C@@H](C3)N4c3ccc(C(=O)NCC(F)(F)F)cn3)CC2)c1", "pIC50", "> 5.70"),
    ("CC(C)(Oc1ccc(Cl)cc1Cl)C(=O)N[C@H]1C[C@H]2CC[C@@H](C1)N2c1ccc(C(=O)NCC(=O)C(F)(F)F)cn1", "pIC50", "> 6.70"),
    ("CC(C)(Oc1ccc(Cl)cc1OC(F)(F)F)C(=O)NC1CC2CCC(C1)N2c1ccc(C(=O)NCC(O)C(F)(F)F)cn1 (centres unmarked)", "pIC50", "> 6.70"),
    ("CC(C)(Oc1ccc(Cl)c(F)c1)C(=O)N[C@H]1C[C@H]2CC[C@@H](C1)N2c1ccc(S(C)(=O)=O)cn1", "pIC50", "> 6.70"),
    ("Cc1ccc(C2(C(=O)N[C@H]3C[C@H]4CC[C@@H](C3)N4c3ccc(C(=O)NC4CC4)cn3)CC2)cc1", "pIC50", "> 6.70"),
    ("C[C@@H](NC(=O)c1ccc(N2C3CCC2CC(NC(=O)C(C)(C)Oc2ccc(F)cc2Cl)C3)nc1)C(F)(F)F (some centres unmarked)", "pIC50", "> 6.70"),
    ("CC(C)(Oc1cc(F)c(F)cc1Cl)C(=O)N[C@H]1C[C@H]2CC[C@@H](C1)N2c1ccc(C(=O)NCC(F)F)cn1", "pIC50", "> 6.70"),
    ("CC(C)NC(=O)c1ccc(N2[C@@H]3CC[C@H]2C[C@@H](NC(=O)C(C)(C)Oc2ncc(Cl)cc2Cl)C3)nc1", "pIC50", "> 6.70"),
    ("C[C@H](NC(=O)c1ccc(N2C3CCC2CC(NC(=O)C(C)(C)Oc2ccc(Cl)cc2F)C3)nc1)C(F)(F)F (some centres unmarked)", "pIC50", "> 6.70"),
    ("CC(C)(Oc1ccc(Cl)cc1C(F)(F)F)C(=O)N[C@H]1C[C@H]2CC[C@@H](C1)N2c1ccc(-c2nnn[nH]2)nc1", "pIC50", "> 6.70"),
    ("O=C(NC1CC1)c1ccc(N2[C@@H]3CC[C@H]2C[C@@H](NC(=O)C2(Oc4ccccc4)CC2)C3)nc1", "pIC50", "> 6.70"),
    ("CC(C)(Oc1ccc(F)c(Cl)c1Cl)C(=O)N[C@H]1C[C@H]2CC[C@@H](C1)N2c1ccc(S(C)(=O)=O)cc1", "pIC50", "> 6.70"),
    ("CC(C)(Oc1ccc(Cl)cc1C(F)(F)F)C(=O)N[C@H]1C[C@H]2CC[C@@H](C1)N2c1ccc(C(=O)NCC(F)(F)F)cn1", "pIC50", "> 6.70"),
    ("CC(C)(Oc1ccc(Cl)cc1OCCn1ccnc1)C(=O)N[C@H]1C[C@H]2CC[C@@H](C1)N2c1ccc(C(=O)NCC(F)(F)F)cn1", "pIC50", "> 5.70"),
    ("CC(C)(Oc1ncc(F)cc1C(F)F)C(=O)N[C@H]1C[C@H]2CC[C@@H](C1)N2c1ccc(C(=O)NCC(F)F)cn1", "pIC50", "> 6.70"),
]

---

compounds and their reported IC50
Biological target: recombinant human 11 β-HSD1 (Homo sapiens)
Assay: 11 β-HSD1 SPA Assay (Scintillation Proximity Assay)

# item_smiles, IC50
measured = [
    ("Cc1nc(N2[C@@H]3CC[C@H]2C[C@@H](NC(=O)C(C)(C)Oc2ccc(Cl)cc2)C3)ccc1C(=O)NC1CC1", "< 2000 nM"),
    ("CC(C)(COc1ccc(Cl)cc1C(F)(F)F)C(=O)N[C@H]1C[C@H]2CC[C@@H](C1)N2c1ccc(C(=O)NCC(F)(F)F)cn1", "< 200 nM"),
    ("CC(C)(Oc1ccc(Cl)cc1Cl)C(=O)N[C@H]1C[C@H]2CC[C@@H](C1)N2c1ncc(C(=O)NC2CC2)cc1Cl", "< 200 nM"),
    ("COCCNC(=O)c1ccc(N2[C@@H]3CC[C@H]2C[C@@H](NC(=O)C(C)(C)Oc2ccc(Cl)cc2Cl)C3)nc1", "< 200 nM"),
    ("CC(C)(C(=O)N[C@H]1C[C@H]2CC[C@@H](C1)N2c1ccc(C(=O)NC2CC2)cn1)c1cccc(Cl)c1", "< 200 nM"),
    ("CC(C)(Oc1ccc(Cl)cc1S(C)(=O)=O)C(=O)N[C@H]1C[C@H]2CC[C@@H](C1)N2c1ccc(C(=O)NCC(F)(F)F)cn1", "< 200 nM"),
]

---

Biological target: recombinant human 11 β-HSD1 (Homo sapiens)
Experiment: 11 β-HSD1 SPA Assay (Scintillation Proximity Assay)
pIC50: −log10 of the molar value.
property: pIC50

# item_smiles, reported_value
rows = [
    ("CC(C)(Oc1ccccc1S(C)(=O)=O)C(=O)N[C@H]1C[C@H]2CC[C@@H](C1)N2c1ccc(C(=O)NCC(F)(F)F)cn1", "> 5.70"),
    ("CS(=O)(=O)c1ccc(N2[C@@H]3CC[C@H]2C[C@@H](NC(=O)C2(c4ccc(F)c(Cl)c4)CC2)C3)nc1", "> 6.70"),
    ("CC(C)(Oc1nccc2ccccc12)C(=O)N[C@H]1C[C@H]2CC[C@@H](C1)N2c1ccc(C(N)=O)cn1", "> 6.70"),
    ("CC(C)(Oc1ccc(F)cn1)C(=O)N[C@H]1C[C@H]2CC[C@@H](C1)N2c1ccc(C(=O)NCC(F)(F)F)cn1", "> 6.70"),
]

---

molecules and their reported IC50
Target: recombinant human 11 β-HSD1 (Homo sapiens)
Experiment: 11 β-HSD1 SPA Assay (Scintillation Proximity Assay)
Protocol: Inhibition of 11 βHSD1 by test compounds was assessed in vitro by a Scintillation Proximity Assay (SPA). […] The plate was then incubated overnight at room temperature prior to reading on a Microbeta counter. Percent inhibition of each compound was calculated based on the background and the maximal signals. […] Inhibition of 11 β-HSD1 by test compounds was assessed in vitro by a Scintillation Proximity Assay (SPA). […]

# molecule, study_system, IC50
records = [
    ("CC(C)(Oc1ncc(Cl)cc1Cl)C(=O)N[C@H]1C[C@H]2CC[C@@H](C1)N2c1ccc(C(=O)NCC(F)F)cn1", "recombinant human 11 β-HSD1 (Homo sapiens)", "< 200 nM"),
    ("CC(C)(Oc1c(Cl)cc(F)cc1C(F)(F)F)C(=O)N[C@H]1C[C@H]2CC[C@@H](C1)N2c1ccc(S(C)(=O)=O)cc1", "recombinant human 11 β-HSD1 (Homo sapiens)", "< 200 nM"),
    ("C[C@H](NC(=O)c1ccc(N2C3CCC2CC(NC(=O)C(C)(C)Oc2ccc(F)cc2C(F)(F)F)C3)nc1)C(F)(F)F (stereo partly drawn)", "recombinant human 11 β-HSD1 (Homo sapiens)", "< 200 nM"),
]
